Biological target: T1, human HVEM (human, UniProt Q92956 39-202, limits assumed); further: test concentration or dose not given here
T1 sequence (looked up): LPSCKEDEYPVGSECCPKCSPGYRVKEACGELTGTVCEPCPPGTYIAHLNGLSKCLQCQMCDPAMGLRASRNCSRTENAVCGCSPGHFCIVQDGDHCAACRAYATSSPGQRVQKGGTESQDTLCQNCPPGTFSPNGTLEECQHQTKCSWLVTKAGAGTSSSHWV
Assay: ELISA
Overview of reported ELISA signal across a group of binders:

Binder | ELISA signal
Ab_050 (H5S19-9A11A) (antibody, V domains shown, also called Ab_50) VH: QVQLKQSGPGLVQPSQSLSITCTVSGFSLTTYGVHWVRQSPGKGLEWLGVIWSGGSTDYNAAFISRLSISKDNSKSQVFFKMNSLQANDTAIYYCARRGYGSPYYYAMDYWGQGTSVTVSS VL: EIVLTQSPALMAASPGEKVTITCSVSSSISSSNLHWYQQKSETSPKPWIYGTSNLASGVPVRFSGSGSGTSYSLTISSMEAEDAATYYCQQWSSYPLTFGAGTKLELK | 3.02
Ab_025 (H5S15-2A2A) (antibody, V domains shown, also called Ab_25) VH: EVQLQQSGAELVKPGASVKLSCTASGFNIKDTYMHWVKQRPEQGLEWIGRIDPANDNTKYDPKFQGKATITADTSSNTAYLQLSSLTSEDTAVYYCARVYYAMDYWGQGTSVTVSS VL: DIQMTQSPASLSASVGETVTITCRASENIYSYLAWYQQKQGKSPQLLVYNAKTLAEGVPSRFSGSGSGTQFSLKINSLQPEDFGSYYCQHHYGTYTFGGGTKLEIK | 3.01
Ab_079 (H5S20-22A18A) (antibody, V domains shown, also called Ab_79) VH: EVQLQQSGAELVKPGASVKLSCTASGFNIKDTYMHWVKQRPEQGLEWIGRIDPANGNTKYAPKFQGKATITADTSSNTAYLQLSSLTSEDTAVYYCARSFGNYFDYWGQGTTLTVSS VL: NIVLTQSPASLAVSLGQRATISCRASESVDSYGNSFMHWYQQKPGQPPKLLIYLASNLESGVPARFSGSGSRTDFTLTIDPVEADDAATYYCQQNYADPWTFGGGTKLEIK | 2.97
Ab_009 (H5S14-8A7A) (antibody, V domains shown, also called Ab_9) VH: EVKLVESGGDLVKPGGSLKLSCAASGFTFSNYAMSWVRQTPEKRLEWVASISTGGTTSYYSDSVKGRFTISRDNARNILYLQMSSLRSEDTAMYYCARGGGGNYFWFTYWGQGTLVTISA VL: DVVMTQTPLSLPVSLGDQASISCRSSQSLVHSNGNTYLHWYLQKPGQSPKLLIYKVSNRFSGVPDRFSGSGSGTDFTLKISRVEAEDLGVYFCSQSTHVPFTFGSGTKLEIK | 3.11
Ab_083 (H5S20-49A39A) (antibody, V domains shown, also called Ab_153; Ab_83) VH: EVQLQQSGAELVKPGASVKLSCTASGFNIKDTYVHWVKERPEQGLEWIGRIDPANDNTKYAPKFQVKATITADTSSNTAYLQLSSLTSEDNAVYYCAPYGNYPAWFAYWGQGTLVTVSA VL: DVLMTQTPLSLPVSLGDQVSISCRSSQNIVHSNGNTYLEWYLQKPGQSPKLLIYKVSNRFSGVPDRFSGSGSGTDFTLKISRVEAEDLGVYYCFQGSHVPLTFGAGTKLELK | 3.19
Ab_042 (H5S15-28A23A) (antibody, V domains shown, also called Ab_42) VH: QVQLQQSGAELVKPGASVKMSCKAFGYTFTTYPIEWMKQNHGKSLEWIGNFHPYNDDTKYNEKFKGKAKLTVEKSSSTVYLELSRLTSDDSAVYYCARGGFAYWGQGTLVTVSA VL: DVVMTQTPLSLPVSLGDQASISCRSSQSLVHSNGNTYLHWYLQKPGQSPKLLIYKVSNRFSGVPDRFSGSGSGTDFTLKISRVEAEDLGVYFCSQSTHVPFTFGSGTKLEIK | 0.049
Ab_029 (H5S15-14A14B) (antibody, V domains shown, also called Ab_29) VH: EVQLQQSGPELVKPGASVKMSCKASGYTFTSYVMHWVKQKPGQGLEWIGYINPYNDDTNCNEKFKGKATLTSDKSSSTAYMELSRLTSEDSAVYYCAKARGYGSTFYYSMDYWGQGTSVTVSS VL: DIVMTQSQKFMSTSVGDRVSVTCKASQNVGTNVAWYQQRPGQSPKSLIYSASYRYSGVPDRFTGSGSGTDFTLTISNVQSEDLADYFCQQYNSYPYTFGGGAKLEIK | 3.33
Ab_026 (H5S15-11A3B) (antibody, V domains shown, also called Ab_26) VH: EVQLQQSGADLVKPGASVKLSCTASGFNIKDTYMHWVKQRPEQGLEWIGRIAPANGRTKYDPKFQGKATITADTSSNTAYLQLSSLTSEDTAVYYCANYYASSYDWFAYWGQGTLVTVSA VL: DVLMTQTPLSLTVSLGHQASISCRSSQSIVHSNGNTYLEWYLQKPGQSPKLLIYKVSNRFSGVPDRFSGSGSGTDFTLKISRVEAEDLGVYYCFQGSHVPLTFGAGTKLELK | 3.1
Ab_081 (H5S20-44A32A) (antibody, V domains shown, also called Ab_81) VH: EVKLVESGGGLVQPGGSLKLSCAASGFTFSSYTMSWVRQTPEKRLEWVAYISNGGGSTYYPDTVKGRFTISRDNAKNTLYLQMSSLKSEDTAMYYCARHRGYGSSYNYAMDYWGQGTSVTVSS VL: DIVMTQSQKFMSTSVGDRVSVTCKASQNVGTNVAWYQQKPGQSPKALIYSASYRYSGVPDRFTGSGSGTDFTLTISNVQSEDLAEYFCQQYNSYPFTFGSGTKLEIK | 1.59
Ab_007 (H5S14-6A6A) (antibody, V domains shown, also called Ab_7) VH: EVKLVESGGGLVQPGGSLRLSCATSGFTFTDYYMSWVRQTPGKALEWLGFIRNQANAYTTEYSVSVKGRFTISRDNSQSILYLQMNTLRVEDSATYYCARVPDYWGQGTTLTVSS VL: DIQMTQSPASQSASLGESVTITCLASQTIGTWLAWYQQKPGKSPQLLIYAATSLADGVPSRFSGSGSGTKFSFKISSLQAEDFVSYYCQQLHSTPYTFGGGTKLEIK | 2.56
